Hey, just so you know, these numbers are from ChEMBL document CHEMBL1154596.

- Target Under Test: Kappa-type opioid receptor (Rattus norvegicus) (UniProt P34975)
- Sequence (P34975 whole entry): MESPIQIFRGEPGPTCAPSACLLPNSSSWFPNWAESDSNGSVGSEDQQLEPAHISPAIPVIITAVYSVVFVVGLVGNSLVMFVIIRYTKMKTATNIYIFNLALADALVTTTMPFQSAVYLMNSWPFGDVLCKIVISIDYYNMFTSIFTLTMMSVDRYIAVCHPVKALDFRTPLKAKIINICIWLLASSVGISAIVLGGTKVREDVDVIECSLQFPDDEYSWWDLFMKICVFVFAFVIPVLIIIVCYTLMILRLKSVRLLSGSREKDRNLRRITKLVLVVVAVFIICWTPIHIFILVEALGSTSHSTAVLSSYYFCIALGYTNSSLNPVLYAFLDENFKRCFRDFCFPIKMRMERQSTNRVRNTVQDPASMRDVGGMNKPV
- Protocol Notes: Activity at rat kappa opioid receptor expressed in CHO cells assessed as inhibition of adenylyl cyclase activity at 10 uM relative to Dyn A-(1-13)NH2
- Format: functional, cell-based
Recorded Endpoint: inhibition

Examples with their reported inhibition follow.
>>> measured("CC(C)C[C@H](NC(=O)[C@H](Cc1ccccc1)NC(=O)CNC(=O)CNC(=O)[C@H](Cc1ccc(O)cc1)NCc1ccccc1)C(=O)N[C@@H](CCCNC(=N)N)C(=O)N(C)[C@@H](CCCNC(=N)N)C(=O)N[C@H](C)C(=O)N[C@@H](CCCNC(=N)N)C(=O)N1CCC[C@@H]1C(=O)N[C@@H](CCCCN)C(N)=O")
"70%"
>>> measured("CC(C)C[C@H](NC(=O)[C@H](Cc1ccccc1)NC(=O)CNC(=O)CNC(=O)[C@H](Cc1ccc(O)cc1)NCc1ccccc1)C(=O)N[C@@H](CCCNC(=N)N)C(=O)N[C@@H](CCCNC(=N)N)C(=O)N[C@H](C)C(=O)N[C@@H](CCCNC(=N)N)C(=O)N1CCC[C@H]1C(=O)N[C@@H](CCCCN)C(N)=O")
"70%"

Shift focus to the following entry.
Fill blank: measured inhibition of the compound `CC[C@H](C)[C@H](NC(=O)[C@H](CCCNC(=N)N)N(C)C(=O)[C@H](CCCNC(=N)N)NC(=O)[C@H](CC(C)C)NC(=O)[C@H](Cc1ccccc1)NC(=O)CNC(=O)CNC(=O)[C@H](Cc1ccc(O)cc1)NCc1ccccc1)C(=O)N[C@@H](CCCNC(=N)N)C(=O)N1CCC[C@H]1C(=O)N[C@@H](CCCCN)C(N)=O` is ____.
70%
